Give measured IC50 for each item. Keep answers brief.
System: Her2
protocol summary: Her2 degradation in BT-474 cells, in-cell western (ICW), Method 2
Format: cell-based, human
measurement conditions: BT-474 cells, 24 hours, Her2 signal normalized to DRAQ5; read-out: Her2 IC50 range of compounds of the invention for inhibition of Hsp90
Value expressed in nM; do not type the unit.

Item: "CC(C)c1cc(-c2nnc(-c3cccc(O)c3)n2-c2ccc(N3CCN(C)CC3)cc2)c(O)cc1O" | System: Her2 | IC50: 543

Item: "CC(C)c1cc(-c2nnc(-c3cccc(O)c3)n2-c2ccc(CN3CCN(C)CC3)cc2)c(O)cc1O" | System: Her2 | IC50: 123

Item: "CC(C)c1cc(-c2nnc(-c3ccccc3O)n2-c2ccc(N3CCN(C)CC3)cc2)c(O)cc1O" | System: Her2 | IC50: 5160

Item: "CC(C)c1cc(-c2nnc(-c3cnccn3)n2-c2ccc(N3CCN(C)CC3)cc2)c(O)cc1O" | System: Her2 | IC50: 3400

====

Tested on: Her2
protocol summary: Her2 degradation in BT-474 cells, in-cell western (ICW), Method 2
Format: cell-based, human
measurement conditions: BT-474 cells, 24 hours, Her2 signal normalized to DRAQ5; read-out: Her2 IC50 range of compounds of the invention for inhibition of Hsp90
metric: IC50
Reply with a number, then the unit it belongs to.

Lookup result for CC(C)c1cc(-c2nnc(-c3ccccn3)n2-c2ccc(N3CCN(C)CC3)cc2)c(O)cc1O [Compound 5] ; measured IC50: 0.543 µM

Lookup result for CC(C)c1cc(-c2nnc(-c3cccc(O)c3)n2-c2ccc(N3CCOCC3)cc2)c(O)cc1O [Compound 8] ; measured IC50: 0.143 µM

Lookup result for CC(C)c1cc(-c2nnc(-c3cc(C(C)C)c(O)cc3O)n2-c2ccc(N3CCN(C)CC3)cc2)c(O)cc1O [Compound 1] ; measured IC50: 3.5 µM

Lookup result for CC(C)c1cc(-c2nnc(-c3ccncc3)n2-c2ccc(N3CCN(C)CC3)cc2)c(O)cc1O [Compound 2] ; measured IC50: 2.28 µM
